- TESTED SYSTEM: wt human TYK2, catalytic site (Homo sapiens)
- Construct: wt human TYK2, catalytic site
- PROTOCOL SUMMARY: HTRF KinEASE assay, TYK2
- TEST CONDITIONS: 1 μM ATP; read-out: IC50, Activity Toward TYK2
pIC50: −log10 of the molar value.
QUANTITY NAME: pIC50

Cn1cc(C(F)(F)F)nc1-c1ccc(Nc2nn(-c3c(Cl)cccc3Cl)nc2C(N)=O)cc1 | 7.00 to 8.00
Cc1cccc2nnc(-c3ccc(Nc4cn(-c5c(Cl)cccc5Cl)nc4C(N)=O)nc3)n12 | 7.00 to 8.00
Cc1cnn(-c2ccc(Nc3cn(-c4c(Cl)cccc4Cl)nc3C(N)=O)cc2)c1C | 6.00 to 7.00
CN1CCN(C(=O)c2cnc(Nc3cn(-c4c(Cl)cccc4Cl)nc3C(N)=O)cn2)CC1 | 6.00 to 7.00
NC(=O)c1nn(-c2c(Cl)cccc2Cl)nc1Nc1ccc(-c2nnn[nH]2)cc1 | 7.00 to 8.00

*Q* # return recorded pIC50 for input `NC(=O)c1nn(-c2c(Cl)cccc2Cl)nc1Nc1ccc(OC2CCNCC2)cc1`
*A* 7.00 to 8.00

*Q* Supply recorded pIC50 for `NC(=O)c1nn(-c2c(Cl)cccc2Cl)cc1Nc1ccc(-c2nc(C(F)(F)F)cn2CCO)cc1` here.
*A* > 8.00

*Q* Identify pIC50 associated with the molecule `CC1(C)CN(C(=O)c2ccc(Nc3nn(-c4c(Cl)cccc4Cl)nc3C(N)=O)nc2)C1`
*A* 7.00 to 8.00

*Q* Dear colleague, please send me the reported pIC50 for `Cc1cnnn1-c1ccc(Nc2nn(-c3c(Cl)cccc3Cl)nc2C(N)=O)cc1` when you can.
*A* > 8.00

*Q* Dear colleague, please send me the reported pIC50 for `NC(=O)c1nn(-c2c(Cl)cccc2Cl)nc1Nc1ccc(-c2nnc3n2CCCC3)cc1` when you can.
*A* > 8.00

*Q* Read the entry `NC(=O)c1nn(-c2c(Cl)cccc2Cl)cc1Nc1ccc(C(=O)N2CC[C@H](N)C2)nc1` and write its reported pIC50.
*A* 7.00 to 8.00

* * *

Below: a set of entries, each annotated with reported IC50.
- TESTED SYSTEM: wt human JAK1, catalytic site (Homo sapiens, UniProt P23458)
- Construct: wt human JAK1, catalytic site
- Sequence (P23458 875-1153 limits assumed): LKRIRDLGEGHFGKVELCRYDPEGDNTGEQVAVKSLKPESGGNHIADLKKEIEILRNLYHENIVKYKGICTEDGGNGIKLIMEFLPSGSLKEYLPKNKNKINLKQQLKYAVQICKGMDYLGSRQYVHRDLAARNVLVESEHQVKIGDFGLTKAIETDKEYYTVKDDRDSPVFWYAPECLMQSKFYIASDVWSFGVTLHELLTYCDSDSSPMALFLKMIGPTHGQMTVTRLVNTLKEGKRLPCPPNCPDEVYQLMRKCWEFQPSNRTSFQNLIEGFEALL
- PROTOCOL SUMMARY: HTRF KinEASE assay, JAK1
- TEST CONDITIONS: 2.5 μM ATP; read-out: IC50, Activity Toward JAK1

Here is how some compounds turned out for IC50.
Cc1ccc(=O)n(-c2ccc(Nc3cn(-c4c(Cl)cccc4Cl)nc3C(N)=O)cc2)n1 | 100 to 1000 nM
Cn1cc(C(F)(F)F)nc1-c1ccc(Nc2cn(-c3c(Cl)cccc3Cl)nc2C(N)=O)cc1 | 10 to 100 nM
NC(=O)c1nn(-c2c(Cl)cccc2Cl)cc1Nc1ccc(C(=O)N2CC[C@@H](N)C2)cc1 | 10 to 100 nM

*Q* Report IC50, nothing else, for this compound: `NC(=O)c1nn(-c2c(F)ccc(F)c2Cl)nc1Nc1ccc(C(=O)N2CC[C@@H](F)C2)cc1`
*A* < 10 nM

*Q* Input `CCn1ncnc1-c1ccc(Nc2cn(-c3c(Cl)cccc3Cl)nc2C(N)=O)nc1` , output reported IC50.
*A* 10 to 100 nM

*Q* Input `NC(=O)c1nn(-c2c(Cl)cccc2Cl)cc1Nc1ccc(-c2nnc3n2CCCC3)cc1` , output reported IC50.
*A* 100 to 1000 nM

*Q* Could you please provide reported IC50 for `NC(=O)c1nn(-c2c(F)cccc2Cl)cc1Nc1ccc(C(=O)N2CCCC2)cc1` ? Thanks!
*A* 10 to 100 nM

*Q* Name the recorded IC50 of the item `NC(=O)c1nn(-c2c(Cl)cccc2Cl)cc1Nc1ccc(-c2nncn2/C=C/F)cc1` in your answer.
*A* 10 to 100 nM

*Q* Quickly give me recorded IC50 for `COCCNC(=O)c1ccc(Nc2nn(-c3c(Cl)cccc3Cl)nc2C(N)=O)cc1`
*A* < 10 nM

*Q* Identify the reported IC50 for the following entry. `N#Cc1cccc(Cl)c1-n1cc(Nc2ccc(C(=O)N3CCS(=O)(=O)CC3)cc2)c(C(N)=O)n1`
*A* 10 to 100 nM

*Q* Return IC50 for the following compound: `CN(C)[C@H]1CCN(C(=O)c2ccc(Nc3cn(-c4c(Cl)cccc4Cl)nc3C(N)=O)nc2)C1`
*A* 100 to 1000 nM

* * *

- TESTED SYSTEM: wt human JAK1, catalytic site (Homo sapiens)
- Construct: wt human JAK1, catalytic site
- PROTOCOL SUMMARY: HTRF KinEASE assay, JAK1
- TEST CONDITIONS: 2.5 μM ATP; read-out: IC50, Activity Toward JAK1
pIC50: −log10 of the molar value.
Listed below: pIC50 values for each entry.

CC(C)(C)OC(=O)N[C@H]1CCN(C(=O)c2ccc(Nc3cn(-c4c(Cl)cccc4Cl)nc3C(N)=O)cc2)C1 [compound 325] | 6.00 to 7.00

*Q* Provide pIC50, tested on wt human JAK1, catalytic site (Homo sapiens), for CC(C)(C)OC(=O)NC1CCN(C(=O)c2ccc(Nc3cn(-c4c(Cl)cccc4Cl)nc3C(N)=O)cc2)C1 (stereo not drawn) [compound 323] .
*A* 6.00 to 7.00

*Q* Provide the reported pIC50 (system: wt human JAK1, catalytic site (Homo sapiens)) for NC(=O)c1nn(-c2c(F)cccc2Cl)cc1Nc1ccc(C(=O)N2CC3(CCC3)C2)cc1 [compound 54]
*A* 6.00 to 7.00

* * *

- TESTED SYSTEM: wt human TYK2, catalytic site (Homo sapiens, UniProt P29597)
- Construct: wt human TYK2, catalytic site
- Sequence (P29597 897-1176 limits assumed): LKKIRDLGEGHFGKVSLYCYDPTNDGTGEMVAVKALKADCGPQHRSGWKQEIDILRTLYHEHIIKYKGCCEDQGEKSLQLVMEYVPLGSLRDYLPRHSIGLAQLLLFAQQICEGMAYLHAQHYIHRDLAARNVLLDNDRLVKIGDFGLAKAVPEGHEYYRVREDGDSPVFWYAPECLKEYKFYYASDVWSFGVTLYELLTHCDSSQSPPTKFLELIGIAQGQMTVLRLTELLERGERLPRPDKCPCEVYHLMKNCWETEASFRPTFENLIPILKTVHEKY
- PROTOCOL SUMMARY: HTRF KinEASE assay, TYK2
- TEST CONDITIONS: 1 μM ATP; read-out: IC50, Activity Toward TYK2
pIC50: −log10 of the molar value.
QUANTITY NAME: pIC50

Solved entries:
CC(C)n1cnnc1-c1ccc(Nc2nn(-c3c(Cl)cccc3Cl)nc2C(N)=O)cc1 [compound 116] | > 8.00
CN1CCC(NS(=O)(=O)c2ccc(Nc3cn(-c4c(Cl)cccc4Cl)nc3C(N)=O)cc2)CC1 [compound 89] | > 8.00
Cc1cccc2[nH]nc(-c3ccc(Nc4cn(-c5c(Cl)cccc5Cl)nc4C(N)=O)cn3)c12 [compound 427] | 6.00 to 7.00
CN(C)[C@H]1CCN(C(=O)c2ccc(Nc3cn(-c4c(Cl)cccc4Cl)nc3C(N)=O)cc2)C1 [compound 314] | > 8.00
NC(=O)c1nn(-c2c(Cl)cccc2Cl)cc1Nc1ccc(C(=O)N2CCN(CC(F)F)CC2)cc1 [compound 83] | > 8.00
CC(C)Cn1cnnc1-c1ccc(Nc2cn(-c3c(Cl)cccc3Cl)nc2C(N)=O)cc1 [compound 203] | > 8.00
NC(=O)c1nn(-c2c(Cl)cccc2Cl)nc1Nc1cnn(CC(=O)N2CCS(=O)(=O)CC2)c1 [compound 174] | 7.00 to 8.00
COCCCNC(=O)c1ccc(Nc2cn(-c3c(Cl)cccc3Cl)nc2C(N)=O)cc1 [compound 420] | 6.00 to 7.00
NC(=O)c1nn(-c2c(Cl)cccc2Cl)cc1Nc1ccc(C(=O)N2CCN(CC3CC3)CC2)cc1 [compound 86] | > 8.00
NC(=O)c1nn(-c2c(Cl)cccc2Cl)cc1Nc1ccc(C(=O)N2CCC2)cc1 [compound 92] | 7.00 to 8.00

*Q* Provide pIC50, recorded with wt human TYK2, catalytic site (Homo sapiens, UniProt P29597), of COc1cc(Cl)c(-n2nc(Nc3ccc(C(=O)N4CCSCC4)cc3)c(C(N)=O)n2)c(Cl)c1 [compound 176]
*A* 6.00 to 7.00

*Q* Report pIC50 from wt human TYK2, catalytic site (Homo sapiens, UniProt P29597) testing of NC(=O)c1nn(-c2c(Cl)ccc(F)c2Cl)nc1Nc1ccc(C(=O)N2CC[C@@H](F)C2)cc1 [compound 145]
*A* 7.00 to 8.00

*Q* Report pIC50 from wt human TYK2, catalytic site (Homo sapiens, UniProt P29597) testing of NC(=O)c1nn(-c2c(Cl)cccc2Cl)cc1Nc1ccc(CC(=O)N2CCOCC2)nc1 [compound 440]
*A* 6.00 to 7.00

*Q* // fetch pIC50; item: Cn1cc(C(F)(F)F)nc1-c1ccc(Nc2nn(-c3c(Cl)cccc3Cl)nc2C(N)=O)nc1 [compound 144] ; system: wt human TYK2, catalytic site (Homo sapiens, UniProt P29597)
*A* 7.00 to 8.00

*Q* Jot down pIC50 (wt human TYK2, catalytic site (Homo sapiens, UniProt P29597)) of NC(=O)c1nn(-c2c(Cl)cccc2Cl)nc1Nc1ccc(C(=O)N2CCC(F)C2)cn1 (stereo in doubt) [compound 130] .
*A* 7.00 to 8.00

*Q* Specify pIC50 for Cc1cnnn1-c1ccc(Nc2cn(-c3c(Cl)cccc3Cl)nc2C(N)=O)nc1 [compound 432] , system wt human TYK2, catalytic site (Homo sapiens, UniProt P29597).
*A* 6.00 to 7.00

*Q* Look up wt human TYK2, catalytic site (Homo sapiens, UniProt P29597) data: pIC50 of CCc1cncnc1-c1ccc(Nc2cn(-c3c(Cl)cccc3Cl)nc2C(N)=O)cc1 [compound 52] , then report it.
*A* 7.00 to 8.00

*Q* Report pIC50 on wt human TYK2, catalytic site (Homo sapiens, UniProt P29597) for this entry: NC(=O)c1nn(-c2c(Cl)cccc2Cl)nc1Nc1ccc(-n2nncc2C(F)(F)F)cn1 [compound 157]
*A* 6.00 to 7.00

Hey, just so you know, these numbers are from patent US20230373985A1.
